# System: Calu-3;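 note: growth inhibition of human Calu-3 cells, determined with a cell viability assay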
# Procedure Text: cells
# Assay type: functional, cell-based, Homo sapiens
# Reported Conditions: Homo sapiens, Calu-3
# Description: SANGER: Inhibition of human Calu-3 cell growth in a cell viability assay.
pIC50: −log10 of the molar value.
Property: pIC50; scope: individual compounds

Compound	pIC50
COc1ccc(C2=N[C@@H](c3ccc(Cl)cc3)[C@@H](c3ccc(Cl)cc3)N2C(=O)N2CCNC(=O)C2)c(OC(C)C)c1 [NUTLIN-3]	< 5.10
COc1cc(F)c(F)c(Nc2ccc(I)cc2F)c1NS(=O)(=O)C1(CC(O)CO)CC1 (configuration not stated)	5.31
CN(C)C/C=C/C(=O)Nc1cc2c(Nc3ccc(F)c(Cl)c3)ncnc2cc1O[C@H]1CCOC1 [AFATINIB]	< 6.30
C=CCc1cccc(/C=N/NC(=O)CN2CCN(Cc3ccccc3)CC2)c1O [PAC-1]	< 5.59
CCC1=C[C@@H]2CN(C1)Cc1c([nH]c3ccccc13)[C@@](C(=O)OC)(c1cc3c(cc1OC)N(C)[C@H]1[C@@](O)(C(=O)OC)[C@H](OC(C)=O)[C@]4(CC)C=CCN5CC[C@]31[C@@H]54)C2 [VINORELBINE]	7.74
CCOc1nc(NC(=O)Cc2cc(OC)ccc2OC)cc(N)c1C#N	< 5.00
Cc1cnc(-c2cnc(NCCNc3ccc(C#N)cn3)nc2-c2ccc(Cl)cc2Cl)[nH]1 [LADUVIGLUSIB]	< 5.59
